Reference source for all entries: patent US20070010671A1

Provide the recorded IC50 for the entries that follow.
molecular target: MCH receptor (Homo sapiens, UniProt Q99705); experiment: High throughput functional screening FLIPR/FDSS6000: inhibition of MCH-evoked intracellular Ca2+ changes; type: cell-based; conditions: class by percent of control at 10^-7 M or by IC50; read-out: class

Value of IC50 reported for the compound CN(C)c1nc(N[C@H]2CC[C@@H](NC(=S)Nc3ccc(C#N)cc3)CC2)nc2ccccc12 [compound 160] is < 50 nM

Lab book: IC50 of CN(C)c1nc(N[C@H]2CC[C@@H](CNC(=S)Nc3ccc(-c4cnco4)cc3)CC2)nc2ccccc12 [compound 818] noted as > 200 nM

Field IC50 (entry Cc1cccc(C(C)C)c1NC(=O)N[C@H]1CC[C@@H](Nc2nc(N(C)C)c3ccccc3n2)CC1 [compound 102] ) reads < 50 nM

* * *

For each entry below, report its IC50 value.
target: MCH receptor (Homo sapiens, UniProt Q99705); assay: High throughput functional screening FLIPR/FDSS6000: inhibition of MCH-evoked intracellular Ca2+ changes; type: cell-based; settings: class by percent of control at 10^-7 M or by IC50; read-out: class

Record CN(C)c1nc(N[C@H]2CC[C@@H](NC(=S)Nc3ccccc3)CC2)nc2ccccc12 [compound 191] . Reported IC50: > 200 nM

Input CN(C)c1nc(N[C@H]2CC[C@@H](NC(=S)NC3CCCCC3)CC2)nc2ccccc12 [compound 161] . Output IC50: 50 to 200 nM

Value of IC50 reported for the molecule CN(C)c1nc(N[C@H]2CC[C@@H](NC(=O)Nc3cccc(SC(F)(F)F)c3)CC2)nc2ccccc12 [compound 119] is > 200 nM

IC50 reading for CC(C)c1ccc(NC(=O)N[C@H]2CC[C@@H](Nc3nc(N(C)C)c4ccccc4n3)CC2)cc1 [compound 39] : > 200 nM

For this molecule ( COc1ccc(C)cc1NC(=O)N[C@H]1CC[C@@H](Nc2nc(N(C)C)c3ccccc3n2)CC1 [compound 105] ), measured IC50 is 50 to 200 nM

* * *

Please go through the items and note down their IC50.
molecular target: MCH receptor (Homo sapiens, UniProt Q99705); test: High throughput functional screening FLIPR/FDSS6000: inhibition of MCH-evoked intracellular Ca2+ changes; type: cell-based; settings: class by percent of control at 10^-7 M or by IC50; read-out: class

Bench note, MCH receptor (Homo sapiens, UniProt Q99705): Cc1ccc(NC(=O)N[C@H]2CC[C@@H](Nc3nc(N(C)C)c4ccccc4n3)CC2)cc1 , IC50 reads 50 to 200 nM

The reported IC50 value, MCH receptor (Homo sapiens, UniProt Q99705), for CN(C)c1nc(N[C@H]2CC[C@@H](NC(=S)Nc3c(F)c(F)c(F)c(F)c3F)CC2)nc2ccccc12 reads 50 to 200 nM

For CN(C)c1nc(N[C@H]2CC[C@@H](NC(=O)Nc3ccccc3Oc3ccccc3)CC2)nc2ccccc12 on MCH receptor (Homo sapiens, UniProt Q99705), measured IC50 was 50 to 200 nM

Form field IC50 for item Cc1ccc(OC(=O)NC[C@H]2CC[C@@H](Nc3nc(N(C)C)c4ccccc4n3)CC2)cc1 on MCH receptor (Homo sapiens, UniProt Q99705): > 200 nM

Record for CN(C)c1nc(N[C@H]2CC[C@@H](NC(=O)Nc3ccccc3Br)CC2)nc2ccccc12 under target or system MCH receptor (Homo sapiens, UniProt Q99705): IC50 reported as < 50 nM

Known value: MCH receptor (Homo sapiens, UniProt Q99705) IC50 of the molecule CC(=O)c1cccc(NC(=O)N[C@H]2CC[C@@H](Nc3nc(N(C)C)c4ccccc4n3)CC2)c1 equals > 200 nM

Lab entry: MCH receptor (Homo sapiens, UniProt Q99705) assay, molecule CCCCc1ccc(NC(=S)NC[C@H]2CC[C@@H](Nc3nc(N(C)C)c4ccccc4n3)CC2)c(C)c1 , IC50 = > 200 nM

Recorded IC50 for CC(C)NC(=O)N[C@H]1CC[C@@H](Nc2nc(N(C)C)c3ccccc3n2)CC1 on MCH receptor (Homo sapiens, UniProt Q99705) was > 200 nM

Known value: MCH receptor (Homo sapiens, UniProt Q99705) IC50 of the molecule Cc1ccc(Cl)cc1NC(=O)N[C@H]1CC[C@@H](Nc2nc(N(C)C)c3ccccc3n2)CC1 equals > 200 nM

Known value: MCH receptor (Homo sapiens, UniProt Q99705) IC50 of the molecule CC(NC(=O)NC1CCC(Nc2nc(N(C)C)c3ccccc3n2)CC1)c1ccccc1 (stereo not shown) equals < 50 nM

Lab entry: MCH receptor (Homo sapiens, UniProt Q99705) assay, molecule CN(C)c1nc(N[C@H]2CC[C@@H](NC(=O)Nc3ccccc3[N+](=O)[O-])CC2)nc2ccccc12 , IC50 = < 50 nM

// molecule CN(C)c1nc(N[C@H]2CC[C@@H](NC(=S)Nc3ccc(Cl)c(Cl)c3)CC2)nc2ccccc12 , assay MCH receptor (Homo sapiens, UniProt Q99705), IC50 value: > 200 nM

CN(C)c1nc(N[C@H]2CC[C@@H](CNC(=S)NCCN3CCOCC3)CC2)nc2ccccc12 on MCH receptor (Homo sapiens, UniProt Q99705) gives IC50 = > 200 nM

Record CN(C)c1nc(N[C@H]2CC[C@@H](NC(=O)Nc3c(Cl)cc(Cl)cc3Cl)CC2)nc2ccccc12 ; system MCH receptor (Homo sapiens, UniProt Q99705); IC50 = < 50 nM

Record for Cc1cccc(C)c1NC(=S)N[C@H]1CC[C@@H](Nc2nc(N(C)C)c3ccccc3n2)CC1 under target or system MCH receptor (Homo sapiens, UniProt Q99705): IC50 reported as < 50 nM

Record CN(C)c1nc(N[C@H]2CC[C@@H](NC(=O)NC3CCCC3)CC2)nc2ccccc12 has MCH receptor (Homo sapiens, UniProt Q99705) IC50 equal to 50 to 200 nM

IC50 value, target or system MCH receptor (Homo sapiens, UniProt Q99705), for Cc1ccc(NC(=O)N[C@H]2CC[C@@H](Nc3nc(N(C)C)c4ccccc4n3)CC2)c([N+](=O)[O-])c1 : > 200 nM

Response field IC50 (MCH receptor (Homo sapiens, UniProt Q99705)) for item CN(C)c1nc(N[C@H]2CC[C@@H](NC(=O)OCCOCc3ccccc3)CC2)nc2ccccc12 : 50 to 200 nM

Noted IC50 for Cc1c(NC(=O)N[C@H]2CC[C@@H](Nc3nc(N(C)C)c4ccccc4n3)CC2)cccc1[N+](=O)[O-] , tested on MCH receptor (Homo sapiens, UniProt Q99705): < 50 nM

So the reported IC50 for CN(C)c1nc(N[C@H]2CC[C@@H](NC(=O)Nc3cccc(F)c3)CC2)nc2ccccc12 , on MCH receptor (Homo sapiens, UniProt Q99705), turned out to be > 200 nM

The reported MCH receptor (Homo sapiens, UniProt Q99705) IC50 of CN(C)c1nc(N[C@H]2CC[C@@H](CNC(=O)Oc3ccc4ccccc4c3)CC2)nc2ccccc12 is > 200 nM

IC50 for MCH receptor (Homo sapiens, UniProt Q99705) with input CCOc1ccc(NC(=O)N[C@H]2CC[C@@H](Nc3nc(N(C)C)c4ccccc4n3)CC2)cc1 equals 50 to 200 nM
